# target or test system: Anti-CD28 scFv (VH-linker 1-VL) (biotinylated for capture on neutravidin plates)
# Sequence (scFv, as listed by the source): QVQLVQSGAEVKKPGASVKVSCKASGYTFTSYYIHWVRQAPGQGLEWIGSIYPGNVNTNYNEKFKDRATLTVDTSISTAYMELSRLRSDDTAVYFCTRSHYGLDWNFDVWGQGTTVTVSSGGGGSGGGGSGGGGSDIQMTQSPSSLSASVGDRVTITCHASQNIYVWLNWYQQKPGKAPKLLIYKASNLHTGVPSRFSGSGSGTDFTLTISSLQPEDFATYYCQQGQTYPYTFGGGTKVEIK
# assay remarks: phage ELISA, scFv captured on plate, competitor soluble CD28;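 note: crude clonal phage supernatants added to wells pre-incubated with soluble CD28 or with blocking buffer only as control, bound phage read out with HRP-linked anti-M13 antibody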
What Phage binding ELISA CD28 scFv signal in presence of CD28 was measured for each of the following?

These recorded examples may help you get a feel for the data.
INSERT INTO assay_data (binder, value_observed) VALUES
  ('MFWCPMDMWDQCFN [Phage-202]', 0.207),
  ('MFWCPFDMWHFCFN [Phage-200]', 0.469),
  ('MDWCPRHLWDLCFF [Phage-153]', 0.182),
  ('MFWCPRYLWHECFN [Phage-163]', 0.175),
  ('MDWCPRPLWDMCFF [Phage-124]', 0.138),
  ('MDWCPFYLWDECFL [Phage-165]', 0.141),
  ('MDWCPMDLWDVCFN [Phage-140]', 0.263),
  ('MHWCPRYLWDECFN [Phage-180]', 0.127),
  ('MDWCPRDMWFECFA [Phage-210]', 0.143),
  ('MDWCPRHLWNVCFS [Phage-150]', 0.176);

Parameters: items (list). Returns: Phage binding ELISA CD28 scFv signal in presence of CD28 for each item.
1. QDWCPTYLWHHCFN [Phage-186]
2. MDWCPRDMWDQCFD [Phage-201]
3. MDWCPRSLWNVCFF [Phage-141]
4. MAWCPMNLWDQCFF [Phage-159]
5. MNWCPSHLWHMCYF [Phage-171]
6. MHWCPRDLWVVCFN [Phage-147]
7. MHWCPRSLWNECYF [Phage-182]

OUTPUT:
1. 0.122
2. 0.119
3. 0.356
4. 0.145
5. 0.192
6. 0.112
7. 0.115
